system: Abl T315I (Homo sapiens (Human), UniProt P00519, T315I)
assayRemarks: Reaction Biology Corp. kinase assay, mutated Abl T315I
Assay type: biochemical
conditionSummary: 10 μM; Reaction Biology Corp.; read-out: % inhibition of kinase activity, Abl T315I (category)
metricName: inhibition at 10 µM

Please report the measured inhibition at 10 µM for COC(=O)c1cc2cc(NCc3ncc[nH]3)cnc2[nH]1 [ND0095]
< 10%

Please report the measured inhibition at 10 µM for COC(=O)c1cc2cc(Nc3ccncc3)cnc2[nH]1 [ND0058]
< 10%

Please report the measured inhibition at 10 µM for COC(=O)c1cc2cc(NC(=O)c3c(Cl)cccc3Cl)cnc2[nH]1 [ND0072]
< 10%
